Where do the numbers come from? From patent US20250197372A1.

Target: recombinant human GAA (acid alpha-glucosidase) (Homo sapiens)
Test: Acid alpha-glucosidase (GAA) assay (4-methylumbelliferyl-alpha-D-pyranoside substrate, fluorescence)
Response field label: string, one of y (IC50 strictly below 90 nM) or n.

Solved entries:
Compound	Target Under Test	Assigned Label
O=[N+]([O-])c1cc(-c2ccc[nH]2)ccc1NCc1cccc(CN2C[C@H](O)[C@@H](O)[C@H](O)[C@H]2CO)c1	recombinant human GAA (acid alpha-glucosidase) (Homo sapiens)	n
[N-]=[N+]=Nc1ccc(NCCc2nccc(CCN3C[C@H](O)[C@@H](O)[C@H](O)[C@H]3CO)n2)c([N+](=O)[O-])c1	recombinant human GAA (acid alpha-glucosidase) (Homo sapiens)	n

Is 90 nM strictly greater than the compound's reported IC50? compound: `[N-]=[N+]=Nc1ccc(NCCNC(=O)NCCN2C[C@H](O)[C@@H](O)[C@H](O)[C@H]2CO)c([N+](=O)[O-])c1` n

Is 90 nM strictly greater than the compound's reported IC50? compound: `OC[C@@H]1[C@@H](O)[C@H](O)[C@@H](O)CN1CCc1ccc(CCNc2cc(Cl)cc(-c3cccnn3)c2)cc1` n

Is 90 nM strictly greater than the compound's reported IC50? compound: `OC[C@@H]1[C@@H](O)[C@H](O)[C@@H](O)CN1CCCCCCNc1cc(Cl)cc(-c2ncccn2)c1` y

Is 90 nM strictly greater than the compound's reported IC50? compound: `Cc1cc(NCc2ccc(CN3C[C@H](O)[C@@H](O)[C@H](O)[C@H]3CO)cc2)cc(-n2ccnn2)c1` y

Is 90 nM strictly greater than the compound's reported IC50? compound: `OC[C@@H]1[C@@H](O)[C@H](O)[C@@H](O)CN1CCCCCCNc1ccc(-c2cnccn2)cc1Cl` y

Is 90 nM strictly greater than the compound's reported IC50? compound: `O=[N+]([O-])c1cc(Br)ccc1NCc1ccc(CN2C[C@H](O)[C@@H](O)[C@H](O)[C@H]2CO)cc1` n

Is 90 nM strictly greater than the compound's reported IC50? compound: `OC[C@@H]1[C@@H](O)[C@H](O)[C@@H](O)CN1CCc1ccc(CCNc2cc(Cl)cc(-c3noc(C4CCC4)n3)c2)cc1` n
